Data provenance is PubChem BioAssay AID1645861.

- assayed.target: Ubiquitin carboxyl-terminal hydrolase 7 (Homo sapiens)
- assay.text: Ubiquitin-specific protease 7 DUB inhibitors, concentration-effect, biochemical, validation of primary hits (AID 1645861)
- stated.conditions: purified USP7, Ub-rhodamine cleavage fluorescence, 60 min
Active and inactive are the calls of the source.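 How the source made its calls: active means compounds whose peak USP7 inhibition across the dose series reached 30% or more; inactive means the rest.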
IC50 for assorted molecules

Examples with their reported IC50 follow.
molecule	IC50
O=c1[nH]c2ccc(S(=O)(=O)Nc3ccc(O)c4ccccc34)cc2[nH]1	> 50 µM (inactive)
Cn1c2ccccc2c(=O)c2c(=O)n(Cc3ccccc3)c(-c3ccco3)nc21	> 50 µM (inactive)
COc1ccc(NC(=O)Cn2cc(C(=O)c3ccc(C)cc3)c(=O)c3ccccc32)cc1	> 50 µM (inactive)
O=C(O)C1C(C(=O)Nc2ccccc2)C2(c3ccccc3)C(=O)C1(c1ccccc1)C(c1ccccc1)=C2c1ccccc1 (stereo not given)	15.8 µM
Cc1ccc(NC(=O)Cc2nnc3cc(-c4nc(C)no4)ccn23)cc1	45.4 µM
O=C(Nc1ccc(-c2cn3ccsc3n2)cc1)c1ccc(Cl)c([N+](=O)[O-])c1	39.5 µM

The reported value for CSc1ccc(CNC(=O)Cn2nc(C)c3c(C)n(-c4ccccc4)nc3c2=O)cc1 in terms of IC50 is 45.6 µM

Short answer for CCC(=O)Nc1nc2cc(NC(=O)Nc3cccc(C)c3)ccc2s1 : IC50 was > 50 µM (inactive)

The molecule identified as O=C(CCCn1c(=O)c2sccc2n(CC(=O)NCCC2=CCCCC2)c1=O)NCc1ccc2c(c1)OCO2 registered its IC50 at > 50 µM (inactive)

GET /value?item= CCOc1ccc2c(c1)c(=O)c(C(=O)c1ccc(C)cc1)cn2CC(=O)Nc1ccc(C)cc1 &field=IC50 returns > 50 µM (inactive)

* * *

- assayed.target: Ubiquitin carboxyl-terminal hydrolase 7 (Homo sapiens)
- assay.text: Ubiquitin-specific protease 7 DUB inhibitors, concentration-effect, biochemical, validation of primary hits (AID 1645861)
- stated.conditions: purified USP7, Ub-rhodamine cleavage fluorescence, 60 min
Active and inactive are the calls of the source.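 The calls were made as follows: active = compounds whose peak USP7 inhibition across the dose series reached 30% or more; inactive = the rest.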
In this exercise, the only acceptable responses are active, inactive

compound	assayed.target	class
O=c1c(S(=O)(=O)c2cc(F)cc(F)c2)c[nH]c2cc(Cl)ccc12	Ubiquitin carboxyl-terminal hydrolase 7 (Homo sapiens)	inactive

Problem: In this assay, the call recorded for COc1cc(OC)c(NC(=O)c2cc(-c3ccccn3)n[nH]2)cc1Cl was what?
Solution: inactive

Problem: Hi team, can someone confirm the assay call for Cc1ccc(NC(=O)Cn2c(=O)n(CC(=O)NCCc3ccccc3)c(=O)c3sccc32)cc1C ?
Solution: inactive

Problem: Please indicate how the test categorized Cc1nc(-c2noc(-c3cccc(F)c3)n2)cn1CC(=O)Nc1ccccc1 .
Solution: inactive

Problem: Test call for this compound, please: CC(C)c1ccc(NC(=O)c2cc(-c3cccnc3)n[nH]2)cc1
Solution: inactive

Problem: // return assay outcome for Oc1cccc2nc3c(O)cccc3nc12
Solution: inactive

Problem: How was Cc1ccc(NCc2cc3c(-c4cccc(F)c4)nn(-c4ccccc4)c3[nH]c2=O)cc1C classified in this test?
Solution: active

* * *

- assayed.target: Ubiquitin carboxyl-terminal hydrolase 7 (Homo sapiens) (UniProt Q93009)
- Sequence (Q93009 whole entry, looked up): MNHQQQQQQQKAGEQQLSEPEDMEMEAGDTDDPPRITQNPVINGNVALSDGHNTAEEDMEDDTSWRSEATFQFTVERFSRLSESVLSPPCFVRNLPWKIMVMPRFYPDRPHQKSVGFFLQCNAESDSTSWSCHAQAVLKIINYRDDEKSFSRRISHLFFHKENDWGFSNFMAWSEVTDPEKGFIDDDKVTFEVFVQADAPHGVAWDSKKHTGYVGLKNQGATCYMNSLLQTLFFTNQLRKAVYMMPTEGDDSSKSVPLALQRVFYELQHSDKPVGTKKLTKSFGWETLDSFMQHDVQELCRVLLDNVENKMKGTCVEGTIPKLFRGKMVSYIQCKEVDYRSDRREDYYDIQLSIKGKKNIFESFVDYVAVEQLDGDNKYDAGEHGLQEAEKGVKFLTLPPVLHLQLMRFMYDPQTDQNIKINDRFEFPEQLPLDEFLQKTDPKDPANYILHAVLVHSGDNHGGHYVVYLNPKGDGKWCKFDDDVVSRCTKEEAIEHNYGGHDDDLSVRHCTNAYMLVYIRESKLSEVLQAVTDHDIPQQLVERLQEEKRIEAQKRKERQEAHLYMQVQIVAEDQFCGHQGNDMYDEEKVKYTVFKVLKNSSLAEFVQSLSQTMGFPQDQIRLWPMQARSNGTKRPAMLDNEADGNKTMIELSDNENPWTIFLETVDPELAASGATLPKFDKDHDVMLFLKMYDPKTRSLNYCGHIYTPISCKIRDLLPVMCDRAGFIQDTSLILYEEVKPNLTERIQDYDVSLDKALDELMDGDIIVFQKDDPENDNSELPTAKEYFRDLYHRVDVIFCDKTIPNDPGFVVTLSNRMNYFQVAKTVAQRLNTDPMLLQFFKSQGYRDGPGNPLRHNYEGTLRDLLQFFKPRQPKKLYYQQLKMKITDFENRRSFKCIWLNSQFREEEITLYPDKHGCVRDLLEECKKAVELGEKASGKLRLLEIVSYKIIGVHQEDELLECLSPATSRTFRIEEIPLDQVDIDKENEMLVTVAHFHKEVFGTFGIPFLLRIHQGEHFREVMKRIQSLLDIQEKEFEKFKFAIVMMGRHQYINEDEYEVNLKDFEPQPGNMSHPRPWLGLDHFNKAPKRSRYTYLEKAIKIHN
- assay.text: Ubiquitin-specific protease 7 DUB inhibitors, concentration-effect, biochemical, validation of primary hits (AID 1645861)
- stated.conditions: purified USP7, Ub-rhodamine cleavage fluorescence, 60 min
Active and inactive are the calls of the source.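 Rule for the calls: active = compounds whose peak USP7 inhibition across the dose series reached 30% or more; inactive = the rest.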
Field 'call' accepts active, inactive

Check out these entries, answers already filled in.
compound	class
COc1ccc(C(=O)COC(=O)c2ccccc2NS(=O)(=O)c2ccc(O)c([N+](=O)[O-])c2)cc1	active
Cc1cccc(C(=O)Nc2cccc(SC(C(=O)Nc3ccc(Cl)c(C(=O)O)c3)c3ccccc3)c2)c1 (centres undefined)	active
COc1cc(O)cc2c1C(=O)OC(C)CCCCCCC2 (centres undefined)	inactive
COc1cc(O)c2c(O)c3c(cc2c1)C[C@@]1(O)CC(=O)C(C(N)=O)=C(O)[C@@]1(O)C3=O	active
O=C(Cn1cccc(-c2nc(-c3ccccc3)no2)c1=O)Nc1ccccc1F	inactive
Cc1[nH]nc(NC(=O)C2COc3ccccc3O2)c1-c1ccccc1 (centres undefined)	inactive
CCc1noc(-c2ccn3c(CC(=O)Nc4ccccc4C)nnc3c2)n1	inactive
O=C(CCCn1c(=O)[nH]c2cc(Cl)ccc2c1=O)NCCCN1CCCC1=O	inactive
CCOC(=O)C1CCN(C(=O)c2ccc3c(c2)NC(=O)C2CCCN32)CC1 (centres undefined)	inactive
COc1cc(Cl)c(C)cc1NC(=O)Cn1c(=O)n(CC(=O)NCc2ccco2)c(=O)c2ccccc21	inactive

Problem: For CCc1nc(SCC(=O)Nc2ccc(C)cc2C)c2oc3ccccc3c2n1 , what call appears in the results of this test?
Solution: inactive

Problem: Please let me know the test result on file for O=C(Cn1c(=O)n(Cc2ccc3c(c2)OCO3)c(=O)c2ccccc21)NCc1ccco1 .
Solution: inactive

Problem: Could you check what this test reported for O=C(Cn1c(=O)c2ccccc2n(CC(=O)Nc2ccc(Br)cc2)c1=O)NCc1ccco1 ?
Solution: inactive

* * *

- assayed.target: Ubiquitin carboxyl-terminal hydrolase 7 (Homo sapiens) (UniProt Q93009)
- assay.text: Ubiquitin-specific protease 7 DUB inhibitors, concentration-effect, biochemical, validation of primary hits (AID 1645861)
- stated.conditions: purified USP7, Ub-rhodamine cleavage fluorescence, 60 min
Activity calls are given as the source filed them.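 How the source made its calls: active means compounds whose peak USP7 inhibition across the dose series reached 30% or more; inactive means the rest.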
Reply using exactly one outcome from class 1 for active, class 0 for inactive

Past entries and their recorded results:
molecule	class
CCCCCC(=O)C(CCCC)c1oc(=O)c(CCCC)c(O)c1CCCC (stereo not given)	class 0
O=C(COc1ccc(N2CC(C(=O)NCc3ccc4c(c3)OCO4)CC2=O)cc1)Nc1ccc(F)cc1 (stereo not given)	class 0
C[C@@H]1CO[C@@H]2C3=C(C(=O)C=CC3=O)[C@H]3OC(=O)[C@@H]4CCC5[C@@H]1CCC52C34 (stereo not given in full)	class 0

Problem: How did this test come out for O=C(CSc1nnc2n(-c3ccccc3)c(=O)c3ccccc3n12)c1ccc(F)cc1 ?
Solution: class 0

Problem: Any idea what this test logged for O=C(COc1ccccc1)Nc1ccc(-c2nc3cnccc3o2)c(O)c1 ?
Solution: class 0

Problem: Dear colleague, could you share the recorded outcome for Cc1cc(=O)n(C)c2c(O)c3c(cc12)c(C)cc(=O)n3C when you have a moment?
Solution: class 0

* * *

- assayed.target: UniProt:Q93009
- assay.text: Ubiquitin-specific protease 7 DUB inhibitors, concentration-effect, biochemical, validation of primary hits (AID 1645861)
- stated.conditions: purified USP7, Ub-rhodamine cleavage fluorescence, 60 min
Active and inactive are the calls of the source.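 How the source made its calls: active means compounds whose peak USP7 inhibition across the dose series reached 30% or more; inactive means the rest.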
Please state which outcome applies, choosing from active, inactive

Some entries whose results are on file:
molecule	assayed.target	class
CCN(CC)Cc1ccc(-c2nnc(-c3cnc4onc(C)c4c3)o2)o1	UniProt:Q93009	inactive
Cc1cccc2nc(CSc3nc4ccc([N+](=O)[O-])cc4[nH]3)cn12	UniProt:Q93009	inactive

Problem: // return assay outcome for CCC(=O)Nc1cccnc1-c1ccc(C(=O)Nc2ccc3c(c2)OCO3)cc1
Solution: inactive

Problem: Write down the call the test reported for this molecule. Item: CC1CCCN(S(=O)(=O)c2ccc(-n3cnc(C(=O)NC4CC4)c3)nc2)C1 (stereo unspecified)
Solution: inactive

Problem: Tell me the recorded outcome of this test for Cc1cc(NC(=O)Cn2c(=O)n(Cc3ccco3)c(=O)c3ccc(C(=O)NCCc4ccccc4)cc32)n[nH]1 .
Solution: inactive

Problem: # fetch the recorded call for CCCn1cc(C(=O)N2CCC3(CC2)CC2(CO3)Nc3ccccc3-n3cccc32)c(C)n1 (stereo unspecified) here
Solution: inactive

Problem: For this molecule, state the assay outcome: CCOc1ccc2cc3c(nc2c1)OC(=O)N(Cc1ccc(OC)cc1)C3
Solution: inactive

* * *

- assayed.target: UniProt:Q93009
- assay.text: Ubiquitin-specific protease 7 DUB inhibitors, concentration-effect, biochemical, validation of primary hits (AID 1645861)
- stated.conditions: purified USP7, Ub-rhodamine cleavage fluorescence, 60 min
Active and inactive are the calls of the source.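 The calls were made as follows: active = compounds whose peak USP7 inhibition across the dose series reached 30% or more; inactive = the rest.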
Response enum: Y (active), N (inactive)

Worked examples, 3 molecules total:
molecule	assayed.target	class
COc1cc(C)cc2c1C(=O)c1c(cc(O)c(Cl)c1O)C2=O	UniProt:Q93009	Y
O=C(Nc1ccccc1)[C@@H]1[C@@H]2C(=O)N(c3ccc([N+](=O)[O-])cc3)C(=O)[C@@H]2[C@H]2c3ccccc3C=CN12	UniProt:Q93009	N
COc1ccc(NC(=O)Cn2c(=O)n(CCC(=O)NCc3ccccc3)c(=O)c3sccc32)cc1Cl	UniProt:Q93009	N

Problem: Per the records of this test, what outcome belongs to CSC1SCC2C(=O)N(C)C(C(C)C(C)C)C(=O)OCC(NC(=O)c3cnc4ccccc4n3)C(=O)NC(C)C(=O)N(C)C1C(=O)N(C)C(C(C)C(C)C)C(=O)OCC(NC(=O)c1cnc3ccccc3n1)C(=O)NC(C)C(=O)N2C (stereo unspecified) ?
Solution: N

Problem: Status in this test for O=C(CSc1oc(-c2ccc(F)cc2)nc1S(=O)(=O)c1ccc(F)cc1)Nc1ccc(F)cc1 ?
Solution: N

Problem: Identify the outcome logged in this assay for the molecule shown: COc1cccc(-n2cnc3cc(C(=O)NCCc4ccccc4)ccc3c2=O)c1
Solution: N

Problem: Which outcome was assigned to Cc1cccc(OCCn2c(CCNC(=O)C3CCCCC3)nc3ccccc32)c1 in this test?
Solution: N

Problem: Please let me know the test result on file for COc1cc(-c2ccccc2)c(O)c(O)c1-c1ccccc1 .
Solution: Y
